experiment: Drug level in rat brain at 10 mg/kg, iv after 4 hrs by LC/MS/MS analysis; format: ADME, organism-based; design: dose 10 mg/kg, route intravenous; conditions: read-out: Drug uptake
Measured Endpoint: concentration at 4 h (ng/g)
API: value field is a number in ng/g; no unit string.

Entry under test: CCCN1CCC(Oc2ccc3[nH]c(=O)c4c(c3c2)CCSC4)CC1 . Its concentration at 4 h was 13

---

assay: Half life in human liver microsomes by LC/MS/MS analysis; type: ADME, Microsome
Measured Endpoint: half-life (min)
Just the number in min, nothing appended.

GET /value?item= CCCN1CCC(Oc2ccc3[nH]c(=O)c4c(c3c2)CCSC4)CC1 &field=half-life returns 52.6

Item: O=C1CC2(CCCC2)CC(=O)N1CCCCN1CCN(c2ncccn2)CC1 | half-life: 3.8

---

target: Poly [ADP-ribose] polymerase 1 (Homo sapiens)
Sequence (P09874 whole entry): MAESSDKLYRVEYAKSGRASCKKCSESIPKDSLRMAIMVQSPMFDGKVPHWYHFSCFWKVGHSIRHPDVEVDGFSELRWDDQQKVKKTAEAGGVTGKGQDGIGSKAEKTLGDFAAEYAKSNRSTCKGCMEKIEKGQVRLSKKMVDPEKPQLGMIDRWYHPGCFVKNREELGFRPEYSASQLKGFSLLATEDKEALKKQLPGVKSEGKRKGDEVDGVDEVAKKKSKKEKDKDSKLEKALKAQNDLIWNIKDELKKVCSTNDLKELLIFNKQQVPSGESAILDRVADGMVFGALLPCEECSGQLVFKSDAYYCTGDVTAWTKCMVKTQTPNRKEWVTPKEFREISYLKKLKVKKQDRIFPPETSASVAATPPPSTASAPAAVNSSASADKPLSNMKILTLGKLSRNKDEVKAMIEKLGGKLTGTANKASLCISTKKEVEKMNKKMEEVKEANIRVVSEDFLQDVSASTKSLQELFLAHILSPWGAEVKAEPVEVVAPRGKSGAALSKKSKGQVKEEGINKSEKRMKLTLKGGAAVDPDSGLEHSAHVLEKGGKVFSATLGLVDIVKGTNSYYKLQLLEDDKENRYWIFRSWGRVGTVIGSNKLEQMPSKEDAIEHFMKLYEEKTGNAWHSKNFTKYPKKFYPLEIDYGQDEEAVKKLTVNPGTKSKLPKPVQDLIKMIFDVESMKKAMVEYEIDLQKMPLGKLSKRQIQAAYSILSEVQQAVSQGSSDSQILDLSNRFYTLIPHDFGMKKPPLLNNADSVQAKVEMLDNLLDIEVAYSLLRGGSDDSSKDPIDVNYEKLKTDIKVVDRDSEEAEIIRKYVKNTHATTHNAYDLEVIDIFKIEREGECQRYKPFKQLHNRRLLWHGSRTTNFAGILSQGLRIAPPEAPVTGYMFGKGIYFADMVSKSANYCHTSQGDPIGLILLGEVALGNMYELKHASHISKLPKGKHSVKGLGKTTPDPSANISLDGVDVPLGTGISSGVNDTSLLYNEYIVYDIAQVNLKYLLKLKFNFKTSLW
Measured Endpoint: pIC50
Friendly reminder that pIC50 comes from taking -log10 of the concentration in mol/L.

// solved cases for pIC50 follow
Molecule: CC(C)CCN1CCC(Oc2ccc3[nH]c(=O)c4c(c3c2)CCSC4)CC1
Experimental Target: Poly [ADP-ribose] polymerase 1 (Homo sapiens)
Number: 7.15
--
Molecule: CN1CCC(Oc2ccc3[nH]c(=O)c4c(c3c2)CCSC4)C1 (stereo not drawn)
Experimental Target: Poly [ADP-ribose] polymerase 1 (Homo sapiens)
Number: 7.10

Now for another entry.
With Poly [ADP-ribose] polymerase 1 (Homo sapiens) as the test system, O=c1[nH]c2ccc(O)cc2c2c1CSCC2 showed pIC50 of 7.00

Data credit: ChEMBL document CHEMBL1156288
